Tested on: Cy5-hTERT-FL (DNA, G4) GGGGAGGGGCTGGGAGGGCCCGGAGGGGGCTGGGCCGGGGACCCGGGAGGGGTCGGGACGGGGCGGGG
protocol notes: microscale thermophoresis
conditions used: 25 mM KCl; BPEK buffer, pH 7.2, 1.5% DMSO, 20 nM DNA
endpoint label: Kd

Please review the following examples before continuing.
smiles_data=Cc1nc(NCCc2ccccc2)c2ccccc2n1 experimental_result="13 [7, 24] μM"
smiles_data=CCCC(CCC)C1CCN(c2nc(CCN)nc3ccccc23)CC1 experimental_result="17 [7, 45] μM"
smiles_data=CN(CCc1ccccc1)c1nc(CCN)nc2ccccc12 experimental_result="8 [4, 19] μM"

Now for the compound whose Kd we want.
Sample `CCc1nc(N(CCC(=O)NC(C)C)CCc2ccccc2)c2ccccc2n1` — what was its Kd?
5 [1, 23] μM
